Listing of entries alongside the reported apparent KD of MS2 coat protein.
Tested on: MS2 coat protein
Assay: apparent KD of MS2 coat protein; designed switch direction (-1 OFF switch, 1 ON switch): 1; higher = weaker reporter binding
Conditions: Eterna round: R95; input ligand: microRNA oligo, concentration not stated
Record the value in nM, omitting the unit from your answer.

sequence_chain="AGUCCAGCCUGAGCUGGACAAAAGCGUGUACAUGAGGAUCACCCAUGUUCAUGUACAAGCUUUUUGCUCGUCUUAAA [Zipper 52 - 6] (puzzle: Sensor for hsa-mir-208a)" assay_result=20
sequence_chain="AUUUAACAAGCUUUUUGCUCGUCUUAUAAACAUGAGGAUCACCCAUGUAAUAGCGUGAGAGUAAAUUAAUAAAUAAU [JMF 83] (puzzle: Sensor for hsa-mir-208a)" assay_result=44.7
sequence_chain="UAGAGAGGAAGCGAGGAUAUCGUGUUAGGUACAUGAGGAUCACCCAUGUUUUAGGUAGAGGUAGGCGAGAAGGCGCAGGAGAAGA [JR_SS2_Sub090] (puzzle: Same State 2)" assay_result=32.9

Exam item: For the sequence GGUCCAGCCUGAGCUGGACCGAAGCGUGUACAUGAGGAUCACCCAUGUCAUGUACAAGCUUUUUGCUCGUCUUAUUG [JL-shm-2.10 JL Mod] (puzzle: Sensor for hsa-mir-208a) , report apparent KD of MS2 coat protein.
Marked response: 18.8

Exam item: For the sequence ACUUGCUUUUUGCUCAUUUUAUGUCCGAAACAUGAGGAUCACCCAUGUGUAGAUUAUGUGUUGUUUUUGAUACGUGA [JR_SHM208A_Sub067] (puzzle: Sensor for hsa-mir-208a) , report apparent KD of MS2 coat protein.
Marked response: 20.7

Exam item: For the sequence AAAAGAAGAAGUAAGGAUAUUCAAAAGAAAACAUGAGGAUCACCCAUGUACCAAAAGAAAGAAAAGAAGAAGGUACACAAGAAAA [Same State 2 #3] (puzzle: Same State 2) , report apparent KD of MS2 coat protein.
Marked response: 23.2

* * *

System: MS2 coat protein
Test: apparent KD of MS2 coat protein; designed switch direction (-1 OFF switch, 1 ON switch): 1; higher = weaker reporter binding
Details: input ligand: none
Classes are defined on apparent KD of MS2 coat protein with ranges low (below 60 nM), middle (60 nM to below 200 nM), high (200 nM or more)

The examples below pair each entry with its known result.
sequence_chain="GAAAUAAUGAAAGGAUAUACAUGAGGAAUUCUCGUAGAAGGUUCAUGACAUGAGGAUCACCCAUGUAUCGCUCGAAAGAGCGAG [Mat - Same State NG 1 - JL mod - D31] (Eterna round: R96, puzzle: Same State NG 1)" cat=middle
sequence_chain="AGGCUGAGUCGAGGAUAUUAUGGAUCCUCUAAUACAUGAGGAUCACCCAUGUAAUUAAUUAUACAUGAGAAGGUGACUCAGCCA [SSNG2/12-B3] (Eterna round: R96, puzzle: Same State NG 2)" cat=high
sequence_chain="CUCCUAUCGGGAGGAUAUGGUGCCUUGUUGGUGCUAGAAGGUCCAACAUGAGGAUCACCCAUGUGGGAGUGGUUGAGAGACCUC [SS NG10LRO13] (Eterna round: R96, puzzle: Same State NG 1)" cat=middle
sequence_chain="GAGCCAGUCCGAGGAUAUUCAUAUUAACACAUGAGGAUCACCCAUGUGGGCUCAGAAGAGCCCUGGGAGAAGGCGGACUGGCUC [SS-NG2-LRO16] (Eterna round: R96, puzzle: Same State NG 2)" cat=high
sequence_chain="GCGAGCGUACUUGCAACAUGAGGAUCACCCAUGUUAACUGGACAGGAUAUGGUACCGUUUCGGUACCAGAAGGGUUCCUCCAUG [JL SSNG3 3.61] (Eterna round: R96, puzzle: Same State NG 3)" cat=middle
sequence_chain="UGUUCGUAGGAAGGAUAUCGAAAUAAAGGCGUCCACAUGAGGAUCACCCAUGUCGGCGGACCAAACGAGAAGGUCUACCCGGAC [Eternabot solution 12] (Eterna round: R96, puzzle: Same State NG 2)" cat=low
sequence_chain="GGUAGGUUACUACCAAACAUGAGGAUCACCCAUGUUGAUGGGAAGGAUAUGGUACCUUUUAGGUACCAGAAGGUCUACUCGAUC [NGss mod of JL's mod of Fisker 3] (Eterna round: R96, puzzle: Same State NG 3)" cat=middle
sequence_chain="AAGCAGAGGCAAGGAUAUGUGAAGACCCAGCCUAGGCUGGGCACAUGAGGAUCACCCAUGUACAAACAGAAGGUGUAACCAGGC [Eternabot solution 18] (Eterna round: R96, puzzle: Same State NG 2)" cat=middle

Please turn your attention to the following entry.
Exam item: Which bin should I file ACAUGAGAUCUAGGAUAUAUAGUACCUACAUGUGACAUGAGGAUCACCCAUGUGGUAAGUAUGACAUAGAAGGAGAAGAUAUGU [Equivalance 96 - Jieux - Same State NG 2] (Eterna round: R96, puzzle: Same State NG 2) under?
Marked response: low

* * *

Test system: K4 kissing-loop RNA reporter
Assay: apparent KD of K4 kissing-loop reporter; higher = weaker reporter binding
Details: Eterna round: R107; input ligand: tryptophan 2.4 mM
Listing of entries alongside the reported apparent KD of K4 kissing-loop reporter.
Record the value in nM, omitting the unit from your answer.

sequence_chain="GCGCGUCAUGUCAGCGGUGACACUGUCGAUACCAGCGCCGUAAGGCGCCCUUGGCAGCGACGUGCUGGAGUGAUGUUCCAGCGUC [#2 Exclusion - Theophylline A Attempt #20 (HarryS)]" assay_result=141
sequence_chain="GAUGAUCGCGCGGCCGCCACUGGUCAGUGAUGUUGACAUUAAUGCGCCGAGUAGUAACGGCGCAGCAGGACCGGGCGCGAUGUAG [#12 K4 Tryptophan B Same State]" assay_result=163

Exam item: Param request: apparent KD of K4 kissing-loop reporter | system K4 kissing-loop RNA reporter | item GGGAUGUAGGGAAGGAGCGCUUUGCGAAUAUUAAUGAGUGAUGUUCGUAGAUAUUUGUAAUGGCAGGUAGGUCGCCCUAUAUCCC [Skye_SS_AB]
Marked response: 157

* * *

Tested on: K4 kissing-loop RNA reporter
Assay: apparent KD of K4 kissing-loop reporter; higher = weaker reporter binding
Settings: Eterna round: R107; input ligand: theophylline 20 uM
parameter: apparent KD of K4 kissing-loop reporter (nM)
Record the value in nM, omitting the unit from your answer.

sequence_chain="ACUGAGCAUGCGGCCGCCACUUCAGAACGUCGCCCAGAGGGCGACGCCUCCGCAGUGAUGUUGUGGAGGACCGGGCAUGUUCAGA [Omei KL Tryp B Exc A v5]" target_entity="K4 kissing-loop RNA reporter" unit_abbrev=nM assay_result=451

Exam item: Param request: apparent KD of K4 kissing-loop reporter | system K4 kissing-loop RNA reporter | item GCAGUGAUGUUGCACGAGUAGGCUGGAGUACGAGGACCGGUACGGCCGCCACUCGUACGAAAGUCGCUAAUUUAUGGAAUGGUGA [#07 K4 Tryptophan A Same State]
Marked response: 602

Exam item: Param request: apparent KD of K4 kissing-loop reporter | system K4 kissing-loop RNA reporter | item UGCAUCAGUGCCUUUGAUCUAUUCCUGGAUACCAGAUCCUACUUGAUCCCUUGGCAGCCAUACGGGAGUGAUGUUCCAUGUAUCC [theeternabot_exclusion_KL_Theo_A_43]
Marked response: 285

Exam item: Param request: apparent KD of K4 kissing-loop reporter | system K4 kissing-loop RNA reporter | item UGAUACCAGACUGAUACCAGCUAGUGAUGUUAGCUGAAACAGGAACAGGCAAAGCCUGCUAGCCCUUGGCAGCAGUCUGGUAUCU [TheoBX 11 #SwitchBubble #StaticStem]
Marked response: 152

Exam item: Param request: apparent KD of K4 kissing-loop reporter | system K4 kissing-loop RNA reporter | item CCGAAGAACCAGUGAUGUUGGUUGACUAGACAGGAUAUGAGCAACAUCAGAAGGGUCUGGCUUCGGGAGUGGGUCACGCUGACCU [Iserreanor]
Marked response: 912

Exam item: Param request: apparent KD of K4 kissing-loop reporter | system K4 kissing-loop RNA reporter | item AUGCAUCAGACUUGAUACGGUGAAAUAGCCCGAGGACCGGUACGGCCGCCACUCGGUCCAGUGAUGUUGGAUAAUUAAUCUAGGU [theeternabot_sameState_KL_Trp_A_34]
Marked response: 294

Exam item: Param request: apparent KD of K4 kissing-loop reporter | system K4 kissing-loop RNA reporter | item UGUCAUUGGUCUGAUACCAGAAGAAAUCUGGAGUGAUGUUCCAAGUACGACAAAAGUCGCUUCCCUUGGCAGCAGACCGAUGACU [TheoBS 21 #SwitchBubble 13 #StaticStem]
Marked response: 406

Exam item: Param request: apparent KD of K4 kissing-loop reporter | system K4 kissing-loop RNA reporter | item GUAGAUAGGCAACAUCCCUAGUCUACAGACUAGGAUAUCAGGAAACUGAGAAGGAGUCUCCUUGCAGUGAUGUUGCAAGAAUAAU [[F]''-[K]'-[F]'-[F1]-[F2]-[K1]-[K2]_Design5];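 note: bound reporter read as fluorescence of individual clusters on recovered sequencing chips by microscopy, with normalized cluster intensities fitted with a binding model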
Marked response: 83.6
